Assay: Clearance in BALB/c mouse at 5 mg/kg, iv measured upto 48 hrs by LC-MS/MS analysis
Type: ADME, organism-based
Settings: in vivo
MEASUREMENT_KIND: clearance (mL/min/kg)
Expressed in mL/min/kg, but write only the number.

Problem: What value of measured clearance is listed for Cc1ccc(-c2noc(C(C)c3ccc(-c4ccccc4)c(F)c3)n2)cc1NCc1ccc(C(=O)O)s1 (racemic) ?
Result: 13.5

Problem: Fill in: clearance of CC(c1nc(-c2ccc(-c3ccc(C(=O)O)s3)cc2)no1)c1cccc2ccccc12 (configuration not stated) is ___
Result: 2.35
